The entries that follow carry IC50 values tested on Lysine-specific histone demethylase 1A (Homo sapiens), drawn from several published reports.

Below, 8 compounds whose answers are already recorded.
1) CN(C)c1ccc(-c2c(-c3ccc(C#N)c(F)c3)nc(N3CCC(N)CC3)n(C)c2=O)cc1	< 100 nM
2) COc1ccc(-c2c(-c3ccc(C#N)c(F)c3)nc(N3CCC[C@H](N)C3)n(C)c2=O)cc1F	< 100 nM
3) COc1ccc(-c2c(-c3ccc(C#N)cc3)cc(N3CCC(N)CC3)c(=O)n2C)cc1F	< 100 nM
4) O=c1c(-c2cn[nH]c2)nc(CCCN[C@@H]2C[C@H]2c2ccc(F)cc2)cn1-c1ccc(F)cc1	13 nM
5) N#Cc1ccc(-c2nc(C(=O)N3CCC[C@@H](N)C3)c(Cl)n2-c2ccc(C3CC3)nc2)cc1F	< 100 nM
6) COc1ccc(-c2c(-c3ccc(C#N)c(F)c3)nc3c(NCC4CCNC4)nccn23)cc1F (stereo not drawn)	56 nM
7) COc1ccc(-c2c(-c3ccc(C#N)c(F)c3)nc(N(C)C[C@H]3CCNC3)n(C)c2=O)cc1	< 100 nM
8) Cc1ccc(-c2c(-c3ccc(C#N)cc3)nc(NC[C@H]3CCNC3)c(=O)n2C)cc1	< 100 nM

Provide Lysine-specific histone demethylase 1A (Homo sapiens) IC50 reading for O=c1c(N2CCS(=O)(=O)CC2)nc(CCCN[C@@H]2C[C@H]2c2ccc(F)cc2)cn1C1CC1 .
48 nM

====

Target or system Lysine-specific histone demethylase 1A (Homo sapiens, UniProt O60341); metric IC50; compiled from varied reports.

1. Cn1cc2cc(-n3c(-c4ccc(C#N)c(F)c4)nc(C(=O)N4CCC[C@@H](N)C4)c3F)ccc2n1	< 0.1 µM
2. N#Cc1ccc(-n2cc(CCCN[C@@H]3C[C@H]3c3ccc(F)cc3)nc(N3CC4(COC4)C3)c2=O)cc1	0.006 µM
3. Cn1c(-c2ccc(C3CC3)cc2)c(-c2ccc(C#N)cc2)nc(NC[C@H]2CCNC2)c1=O	< 0.1 µM
4. CN(C)[C@H]1CC[C@H](c2nc(C3(CN[C@H]4C[C@@H]4c4ccccc4)CC3)no2)CC1	0.1 to 0.5 µM
5. N#Cc1ccc(-c2cc(NC[C@H]3CCC[C@H](N)C3)nn2-c2ccc(-c3cnn(CCO)c3)cc2)cc1F	< 0.5 µM

Read the entry Cn1c(N2CCC(N)CC2)nc(-c2ccc(C#N)c(F)c2)c(-c2ccc(N3CCOCC3)nc2)c1=O and write its reported IC50.
< 0.1 µM

Determine from records and report IC50 for CN(C)CC1(CN[C@H]2C[C@@H]2c2ccccc2)CC1
0.05 to 0.1 µM

Please supply the value of reported IC50 for the item Cc1ccc(-n2c(-c3ccc(C#N)c(F)c3)nc3c(N4CCC[C@@H](N)C4)ccnc32)c(F)c1
0.026 µM

====

Collected from the literature: IC50 of various compounds toward Lysine-specific histone demethylase 1A (Homo sapiens, UniProt O60341).

Here is how some compounds turned out for IC50.
1) Cc1ccc(-n2nc(-c3ccc(C#N)c(F)c3)cc2C(=O)NC2CCNC2)cc1 (stereo not drawn)	500 to 1000 nM
2) CN(C)c1ccc(-n2c(-c3ccc(C#N)c(F)c3)nc3c(N4CCC[C@@H](N)C4)ccnc32)cc1	26 nM
3) CCn1cc(C(=O)O)c(=O)c2c(N)c(F)c(N[C@H]3CC[C@H](N[C@@H]4C[C@H]4c4ccccc4)CC3)cc21 (relative stereo)	1600 nM
4) COC(=O)[C@H]1CC[C@H](c2nc(C3(CN[C@H]4C[C@@H]4c4ccccc4)CC3)no2)CC1	≤ 50 nM

Then there is this compound:
Recall and state the measured IC50 for Cc1c(C(=O)NC2CCNC2)nc(-c2ccc(C#N)c(F)c2)n1-c1ccc2nn(C)cc2c1 (stereo not drawn) .
< 100 nM
